- System: A549 cell line
- method.notes: In vitro cytotoxic activity, MTT method, A549
- condition.set: A549, Conc. 12.5 µMol
Overview of reported Toxicity % across a group of compounds:
Answer format: numeric, % implied, no suffix.

Some compounds with recorded Toxicity %:
CC(=O)C1C(c2ccc(N(C)C)cc2)c2c(C)nc3sc(C(=O)Nc4ccc(C)cc4)c(N)c3c2CC1(C)O (stereo not shown)	93.25
COc1cccc2c1C(=O)c1c(O)c3c(c(O)c1C2=O)C[C@@](O)(C(=O)CO)C[C@@H]3O[C@H]1C[C@H](N)[C@H](O)[C@H](C)O1	97.9
CC(=O)C1C(c2ccc(N(C)C)cc2)c2c(C)nc(SCC(N)=O)c(C#N)c2CC1(C)O (stereo not shown)	91.6
CC(=O)C1C(c2ccc(N(C)C)cc2)c2c(C)nc(SCC#N)c(C#N)c2CC1(C)O (stereo not shown)	88.52
CC(=O)C1C(c2ccc(N(C)C)cc2)c2c(C)[nH]c(=S)c(C#N)c2CC1(C)O (stereo not shown)	90.77
CSc1nc(C)c2c(c1C#N)CC(C)(O)C(C(C)=O)C2c1ccc(N(C)C)cc1 (stereo not shown)	89.43

Turning to the following compound.
Prompt: Requested read-out: Toxicity %. Entry: CC(=O)c1ccc(NC(=O)CSc2nc(C)c3c(c2C#N)CC(C)(O)C(C(C)=O)C3c2ccc(N(C)C)cc2)cc1 (stereo not shown)
Completion: 92.98

* * *

- System: MCF7 cell line
- method.notes: In vitro cytotoxic activity, MTT method, MCF7
- Assay type: cell-based, human
- condition.set: MCF7, 25 µMol
endpoint.name: Viability % (%)
Lab book: enter the figure in %, no units written.

A selection of reference data follows.
CC(=O)C1C(c2ccc(N(C)C)cc2)c2c(C)nc(SCC#N)c(C#N)c2CC1(C)O (stereo not shown) [Compound 6]	2.655
COc1cccc2c1C(=O)c1c(O)c3c(c(O)c1C2=O)C[C@@](O)(C(=O)CO)C[C@@H]3O[C@H]1C[C@H](N)[C@H](O)[C@H](C)O1 [Doxorubicin, reference compound]	1.556
CC(=O)C1C(c2ccc(N(C)C)cc2)c2c(C)nc(SCC(=O)Nc3ccccc3)c(C#N)c2CC1(C)O (stereo not shown) [Compound 7a]	2.614
CC(=O)C1C(c2ccc(N(C)C)cc2)c2c(C)nc(SCC(=O)Nc3ccc(Cl)cc3)c(C#N)c2CC1(C)O (stereo not shown) [Compound 7c]	3.227
CC(=O)C1C(c2ccc(N(C)C)cc2)c2c(C)nc(SCC(N)=O)c(C#N)c2CC1(C)O (stereo not shown) [Compound 5]	2.778
CC(=O)C1C(c2ccc(N(C)C)cc2)c2c(C)nc(SCC(=O)Nc3ccc(C)cc3)c(C#N)c2CC1(C)O (stereo not shown) [Compound 7b]	3.431

Would you kindly look at the next entry?
Prompt: State the recorded Viability % for this entry: CC(=O)C1C(c2ccc(N(C)C)cc2)c2c(C)[nH]c(=S)c(C#N)c2CC1(C)O (stereo not shown) [Compound 1]
Completion: 2.696

* * *

Form field: Toxicity % (one value per entry).
- Test system: A549 cell line
- method.notes: In vitro cytotoxic activity, MTT method, A549
- condition.set: A549, Conc. 3.125 µMol
Give the value in % but do not write % after it.

Some compounds with known Toxicity % results, for comparison:
CC(=O)C1C(c2ccc(N(C)C)cc2)c2c(C)nc(SCC(=O)Nc3ccccc3)c(C#N)c2CC1(C)O (stereo not shown)	53.33
CC(=O)c1ccc(NC(=O)CSc2nc(C)c3c(c2C#N)CC(C)(O)C(C(C)=O)C3c2ccc(N(C)C)cc2)cc1 (stereo not shown)	77.08

Prompt: Which Toxicity % value belongs to CC(=O)C1C(c2ccc(N(C)C)cc2)c2c(C)nc(SCC#N)c(C#N)c2CC1(C)O (stereo not shown) ?
Completion: 43.83

Prompt: May I ask what Toxicity % has been recorded for CC(=O)c1ccc(NC(=O)c2sc3nc(C)c4c(c3c2N)CC(C)(O)C(C(C)=O)C4c2ccc(N(C)C)cc2)cc1 (stereo not shown) ?
Completion: 82.68

* * *

- measured.on: IKB kinase B (Homo sapiens)
- Sequence (O14920 1-756): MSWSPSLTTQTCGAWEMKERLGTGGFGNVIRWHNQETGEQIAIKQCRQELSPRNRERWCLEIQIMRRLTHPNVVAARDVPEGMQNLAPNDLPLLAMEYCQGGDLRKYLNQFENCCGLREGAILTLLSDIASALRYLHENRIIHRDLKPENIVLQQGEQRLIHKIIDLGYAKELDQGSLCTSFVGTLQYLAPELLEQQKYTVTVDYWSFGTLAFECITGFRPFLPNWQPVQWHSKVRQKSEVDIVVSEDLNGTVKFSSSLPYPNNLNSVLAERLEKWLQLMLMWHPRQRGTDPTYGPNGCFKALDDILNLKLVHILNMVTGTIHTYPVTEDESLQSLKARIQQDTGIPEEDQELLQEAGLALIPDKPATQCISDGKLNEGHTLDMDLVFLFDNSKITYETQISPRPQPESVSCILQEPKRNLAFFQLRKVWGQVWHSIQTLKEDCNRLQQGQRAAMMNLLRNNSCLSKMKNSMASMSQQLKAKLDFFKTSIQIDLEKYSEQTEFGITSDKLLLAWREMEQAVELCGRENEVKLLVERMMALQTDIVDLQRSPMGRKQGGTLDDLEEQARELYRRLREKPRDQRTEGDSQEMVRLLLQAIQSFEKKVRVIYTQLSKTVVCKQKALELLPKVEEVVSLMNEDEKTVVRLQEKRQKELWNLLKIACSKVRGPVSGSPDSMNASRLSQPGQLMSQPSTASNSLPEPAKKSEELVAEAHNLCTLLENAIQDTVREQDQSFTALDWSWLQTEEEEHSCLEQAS
endpoint.name: IC50 (nM)
Reply with just the number (in nM).

Prompt: Can you look up the measured IC50 of CC(=O)c1ccc(NC(=O)c2sc3nc(C)c4c(c3c2N)CC(C)(O)C(C(C)=O)C4c2ccc(N(C)C)cc2)cc1 (stereo not shown) [Compound 8d] for me?
Completion: 240

* * *

- Tested on: A549 cell line
- method.notes: In vitro cytotoxic activity, MTT method, A549
- condition.set: A549, Conc. 6.25 µMol
T if Viability % is below 20%. F if not; exact matches included in F.

Use these answered entries as a reference point.
CC(=O)C1C(c2ccc(N(C)C)cc2)c2c(C)nc(SCC(=O)Nc3ccc(C)cc3)c(C#N)c2CC1(C)O (stereo not shown)	T
CC(=O)C1C(c2ccc(N(C)C)cc2)c2c(C)nc3sc(C(=O)Nc4ccc(Cl)cc4)c(N)c3c2CC1(C)O (stereo not shown)	T
CCOC(=O)CSc1nc(C)c2c(c1C#N)CC(C)(O)C(C(C)=O)C2c1ccc(N(C)C)cc1 (stereo not shown)	T
CC(=O)C1C(c2ccc(N(C)C)cc2)c2c(C)[nH]c(=S)c(C#N)c2CC1(C)O (stereo not shown)	F
CC(=O)c1ccc(NC(=O)CSc2nc(C)c3c(c2C#N)CC(C)(O)C(C(C)=O)C3c2ccc(N(C)C)cc2)cc1 (stereo not shown)	T

Next molecule, please.
Prompt: Is the reported Viability % for CC(=O)C1C(c2ccc(N(C)C)cc2)c2c(C)nc(SCC(N)=O)c(C#N)c2CC1(C)O (stereo not shown) strictly below 20%?
Completion: T

* * *

- System: MCF7 cell line
- method.notes: In vitro cytotoxic activity, MTT method, MCF7
- Type: cell-based, human
- condition.set: MCF7, 3.125 µMol
endpoint.name: Viability %
The reply must contain the numeric value and, after it, the unit.

Prompt: # lookup: Viability % of CC(=O)C1C(c2ccc(N(C)C)cc2)c2c(C)nc(SCC#N)c(C#N)c2CC1(C)O (stereo not drawn)
Completion: 14.3%

Prompt: Using the record for COc1cccc2c1C(=O)c1c(O)c3c(c(O)c1C2=O)C[C@@](O)(C(=O)CO)C[C@@H]3O[C@H]1C[C@H](N)[C@H](O)[C@H](C)O1 [Doxorubicin, reference compound] , report its Viability %.
Completion: 9.13%

Prompt: Which Viability % is reported for this molecule? CC(=O)C1C(c2ccc(N(C)C)cc2)c2c(C)nc(SCC(=O)Nc3ccccc3)c(C#N)c2CC1(C)O (stereo not drawn)
Completion: 47.02%

* * *

- System: A549 cell line
- method.notes: In vitro cytotoxic activity, MTT method, A549
- condition.set: A549, Conc. 25 µMol
endpoint.name: Viability % (%)
Provide only the numeric value, understood in %.

Some entries whose results are on file:
CC(=O)C1C(c2ccc(N(C)C)cc2)c2c(C)nc(SCC(N)=O)c(C#N)c2CC1(C)O (stereo not shown) [Compound 5]	3.629
CC(=O)C1C(c2ccc(N(C)C)cc2)c2c(C)nc(SCC(=O)Nc3ccc(Cl)cc3)c(C#N)c2CC1(C)O (stereo not shown) [Compound 7c]	2.564
CC(=O)C1C(c2ccc(N(C)C)cc2)c2c(C)nc(SCC#N)c(C#N)c2CC1(C)O (stereo not shown) [Compound 6]	3.708

Prompt: # input compound: CC(=O)C1C(c2ccc(N(C)C)cc2)c2c(C)[nH]c(=S)c(C#N)c2CC1(C)O (stereo not shown) [Compound 1] ; wanted: its Viability %
Completion: 3.156

Prompt: What value of measured Viability % is listed for CC(=O)c1ccc(NC(=O)CSc2nc(C)c3c(c2C#N)CC(C)(O)C(C(C)=O)C3c2ccc(N(C)C)cc2)cc1 (stereo not shown) [Compound 7d] ?
Completion: 3.393

Prompt: Data request, read-out Viability %, for COc1cccc2c1C(=O)c1c(O)c3c(c(O)c1C2=O)C[C@@](O)(C(=O)CO)C[C@@H]3O[C@H]1C[C@H](N)[C@H](O)[C@H](C)O1 [Douxrbicin]
Completion: 1.1

Prompt: # query: Viability % of entry CSc1nc(C)c2c(c1C#N)CC(C)(O)C(C(C)=O)C2c1ccc(N(C)C)cc1 (stereo not shown) [Compound 3]
Completion: 3.55

Prompt: Recorded Viability % for CC(=O)C1C(c2ccc(N(C)C)cc2)c2c(C)nc3sc(C(=O)Nc4ccc(Cl)cc4)c(N)c3c2CC1(C)O (stereo not shown) [Compound 8c] , please?
Completion: 2.998

Prompt: If you can, please state the reported Viability % value of CC(=O)C1C(c2ccc(N(C)C)cc2)c2c(C)nc(SCC(=O)Nc3ccccc3)c(C#N)c2CC1(C)O (stereo not shown) [Compound 7a] .
Completion: 3.024

Prompt: Report Viability % for CC(=O)C1C(c2ccc(N(C)C)cc2)c2c(C)nc3sc(C(=O)Nc4ccc(C)cc4)c(N)c3c2CC1(C)O (stereo not shown) [Compound 8b] please.
Completion: 3.945
